tested on: CHO-K1 cells; experiment: MTT cell viability assay on CHO-K1 cells; format: cell-based, Chinese hamster; settings: Cricetulus griseus, 24 h exposure
value_type: IC50 (µM)
Hi! Could you send only the number? It should be in µM, unit omitted.

[[record]]
compound = "CCCCCCCCCCCCCC[n+]1ccccc1 [Compound A14]"
unit_annotation = "µM"
assay_result = 24.7


Suppose we examine the compound CCCCCCCCCCCCCC[n+]1cccc(Cl)c1.[Br-] [Compound B14, 1-tetradecyl-3-chloropyridinium bromide] ; what IC50 value has been reported?
17.2

Given CCCCCCCCCCCCCCCC[n+]1ccn(CCO)c1 [Compound C16] , state its recorded IC50.
1.03

Please look up its IC50: CCCCCCCCCCCCCCCC[n+]1cccc(Cl)c1.[Br-] [Compound B16, 1-hexadecyl-3-chloropyridinium bromide]
12.5

Name the reported IC50 value associated with the compound CCCCCCCCCCCC[n+]1ccn(CCO)c1 [Compound C12]
1.43

Hello, the source for this data is paper PMC7606276, in case you need it.
